The reported numbers originate from ChEMBL document CHEMBL2093137.

- Tested on: Leishmania infantum
- test-details: WHO-TDR: Leishmaniasis
- Assay type: functional, organism-based, Mus musculus
- condition-description: Macrophage
measured-endpoint: IC50 (µg/mL)

{"columns": ["compound", "measurement-unit", "IC50"],
 "data": [
  ["Cc1nn(-c2ccccc2)c2ncc(C(=O)NCC3CCCO3)c(Cl)c12 (stereo unspecified)", "µg/mL", 3.6],
  ["O=C(COc1ccc(Cl)cc1Cl)N(Cc1ccccn1)c1nc2ccccc2s1", "µg/mL", 4.32],
  ["COc1cccc(C(=O)N(CCCn2ccnc2)c2nc3c(C)c(C)ccc3s2)c1OC", "µg/mL", 4.73],
  ["COc1cccc(C(=O)Nc2ccc(C)cc2C(=O)c2ccccc2)c1OC", "µg/mL", 4.75]
]}

[I] CC(C)(C)C(=O)Nc1nnc(SCC(=O)Nc2ccc(Cl)c(Cl)c2)s1
[II] Cc1cc(C)cc(NC(=O)NCCNc2ccc(Nc3ccccn3)nn2)c1
Lab note: check whether I or II has the lower measured IC50. Use the label to indicate which entry you chose.
II
(II: 0.367 µg/mL, I: 4.51 µg/mL)

====

- Test system: Leishmania infantum
- test-details: WHO-TDR: Leishmaniasis
- Format: functional, organism-based, Mus musculus
- condition-description: Macrophage
measured-endpoint: IC50

{"columns": ["compound", "assay-system", "measured-endpoint", "measured-value"],
 "data": [
  ["CC1Cc2ccccc2N1C(=O)Cc1csc(NC(=O)c2ccc[nH]c2=O)n1 (stereo unspecified)", "Leishmania infantum", "IC50", "> 11.8 µg/mL"],
  ["O=C(NCCc1ccc(Cl)cc1)c1csc(NS(=O)(=O)c2ccccc2)n1", "Leishmania infantum", "IC50", "> 12.7 µg/mL"],
  ["O=C(Nc1nc2c(s1)CCCC2)C1CCN(S(=O)(=O)c2ccc(F)cc2)CC1", "Leishmania infantum", "IC50", "> 12.7 µg/mL"],
  ["CCN(C1CCCCC1)S(=O)(=O)c1ccc(C(=O)Nc2nnc(-c3ccc(F)cc3)o2)cc1", "Leishmania infantum", "IC50", "4.59 µg/mL"],
  ["Cn1ncc2c(N3CCOCC3)nc(NCCc3c[nH]c4ccccc34)nc21", "Leishmania infantum", "IC50", "> 11.3 µg/mL"],
  ["CCOC(=O)CNC(=O)CSc1nnc(NC(=O)c2ccccc2Cl)s1", "Leishmania infantum", "IC50", "4.16 µg/mL"],
  ["COc1ccccc1CC(=O)c1ccc(O)c(CN2CCCC(C)C2)c1O (stereo unspecified)", "Leishmania infantum", "IC50", "> 11.1 µg/mL"],
  ["NC(=O)c1cc(-c2ccccc2)sc1NC(=O)Cc1ccc2c(c1)OCO2", "Leishmania infantum", "IC50", "> 11.4 µg/mL"],
  ["Cc1ccc(-n2ccnc2N2CCN(C(=O)/C=C\\c3ccccc3)CC2)cc1", "Leishmania infantum", "IC50", "> 12.3 µg/mL"],
  ["O=C(NCCOc1ccc2nnc(-c3ccccc3)n2n1)c1ccccc1C(F)(F)F", "Leishmania infantum", "IC50", "> 12.8 µg/mL"]
]}

// IC50 lookup, key: "O=C(NCCNc1ccc(Nc2cccnc2)nn1)c1cccc(C(F)(F)F)c1"
> 12.1 µg/mL

Queued: Cc1cc(-c2nnc(NC(=O)C3CCCCN3S(=O)(=O)c3cccs3)o2)nn1C (stereo unspecified)
4.24 µg/mL

Queued: "COc1cccc(NC(=O)NCCNc2ccc(Nc3cccc(C)n3)nn2)c1"
> 11.8 µg/mL

Queued: "O=C(Cc1csc(NC(=O)c2ccc[nH]c2=O)n1)NCc1ccncc1"
> 11.1 µg/mL

Queued: "c1ccc2c(CCNc3[nH]cnc4ncnc3-4)c[nH]c2c1"
> 8.35 µg/mL

Queued: "O=C(CN1CCN(c2nccn2-c2cccc(Cl)c2)CC1)Nc1ccc(F)cc1F"
4.9 µg/mL

Queued: "Cn1cc(S(=O)(=O)N2CCN(C(c3ccccc3)c3ccccc3)CC2)c(=O)n(C)c1=O"
3.65 µg/mL

Queued: "CSc1ccccc1-c1nnc(NC(=O)c2ccc(Cl)s2)o1"
> 10.6 µg/mL

Queued: Cc1c(Cl)ccc2sc(NC(=O)c3ccc(S(=O)(=O)N4CC(C)CC(C)C4)cc3)nc12 (stereo unspecified)
4.64 µg/mL

Queued: "O=C(c1ccco1)N(CCCn1ccnc1)c1nc2c(F)cc(F)cc2s1"
> 12.7 µg/mL

Queued: "Cc1cc(-c2nnc(NC(=O)CSc3ccc(F)cc3)o2)nn1C"
0.337 µg/mL
